Data credit: patent US20220033483A1

- target: T1, cTnI quality control product recombinant protein (human, UniProt P19429 1-210, limits assumed)
- T1 construct: the assay paragraphs only say cTnI; also called cardiac troponin I; cTnI antigen
- T1 sequence (P19429 whole entry): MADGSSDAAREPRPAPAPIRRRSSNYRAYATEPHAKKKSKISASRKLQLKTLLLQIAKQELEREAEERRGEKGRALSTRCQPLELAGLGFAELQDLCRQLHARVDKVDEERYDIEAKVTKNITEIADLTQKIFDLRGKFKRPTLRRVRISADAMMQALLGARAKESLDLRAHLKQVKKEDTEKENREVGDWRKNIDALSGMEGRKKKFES
- assay method text: AMC biosensor, antibody on sensor
Entries whose koff is below 0.0001 s⁻¹ take satisfied; entries at or above 0.0001 s⁻¹ take not satisfied.

- Mutation 1-54 (antibody, V domains shown) VH: QVQLQQSGTELAKPGASVKFSCKASGYTFSSYWMYWIKQRPGQGLEWIGYLNPSSGHTDYNQKFKDKATLTADKSSSTAYMQLNSLTSEDSAVYYCARRYFGPFGMDYWGQGTSVTVSS VL: EIFLTQSPAIMSASPGEKVTMTCSASTTVSYVHWYQQKSGTSPKRWLYDTSKIASGIPVRFSGSGSGTSYSLTISSMEAEDAATYYCQQWSTQPYTFGGGTKLEIKR: satisfied

// query Find out if reported koff for Mutation 1-1 (antibody, V domains shown) VH: QVQLQQSGTELAKPGASVKFSCKASGYTFSTYWMYWIKQRPGQGLEWIGYINPSTGHTDYNQKFKDKATLTADKSSSTAYMQLNSLTSEDSAVYYCARRYYGPFGMDYWGQGTSVTVSS VL: EIFLTQSPAIMSASPGEKVTMTCSASSSVSYVHWYQQKSGTSPKRWIYDTSKIASGIPVRFSGSGSGTSYSLTISSMEAEDAATYYCQQWSTNPYTFGGGTKLEIKR is less than 0.0001 s⁻¹
// result not satisfied

// query Find out if reported koff for Mutation 1-25 (antibody, V domains shown) VH: QVQLQQSGTELAKPGASVKFSCKASGYTFSSYWMYWIKQRPGQGLEWIGYINPSSGHTDYNQRFKDKATLTADKSSSTAYMQLNSLTSEDSAVYYCARRYYGPFGMDYWGQGTSVTVSS VL: EIFLTQSPAIMSASPGEKVTMTCSASTSVSYVHWYQQKSGTSPKRWIYDTSKIASGIPVRFSGSGSGTSYSLTISSMEAEDAATYYCQQWSSNPYTFGGGTKLEIKR is less than 0.0001 s⁻¹
// result satisfied

// query Find out if reported koff for Mutation 1-49 (antibody, V domains shown) VH: QVQLQQSGTELAKPGASVKFSCKASGYTFTTYWMYWIKQRPGQGLEWIGYLNPSSGHTDYNQKFKDKATLTADKSSSTAYMQLNSLTSEDSAVYYCARKYFGPFGMDYWGQGTSVTVSS VL: EIFLTQSPAIMSASPGEKVTMTCSASTSVSYVHWYQQKSGTSPKRWLYDTSKLASGIPVRFSGSGSGTSYSLTISSMEAEDAATYYCQQWSSQPYTFGGGTKLEIKR is less than 0.0001 s⁻¹
// result not satisfied

// query Find out if reported koff for Mutation 1-14 (antibody, V domains shown) VH: QVQLQQSGTELAKPGASVKFSCKASGYTFTSYWMYWIKQRPGQGLEWIGYLNPSTGHTDYNQKFKDKATLTADKSSSTAYMQLNSLTSEDSAVYYCARRYWGPFGMDYWGQGTSVTVSS VL: EIFLTQSPAIMSASPGEKVTMTCSASSTVSYVHWYQQKSGTSPKRWLYDTSKLASGIPVRFSGSGSGTSYSLTISSMEAEDAATYYCQQWSTQPYTFGGGTKLEIKR is less than 0.0001 s⁻¹
// result not satisfied
